target-entity: UniProt:P50052
Sequence (P50052 whole entry, looked up, the tested form may be a part): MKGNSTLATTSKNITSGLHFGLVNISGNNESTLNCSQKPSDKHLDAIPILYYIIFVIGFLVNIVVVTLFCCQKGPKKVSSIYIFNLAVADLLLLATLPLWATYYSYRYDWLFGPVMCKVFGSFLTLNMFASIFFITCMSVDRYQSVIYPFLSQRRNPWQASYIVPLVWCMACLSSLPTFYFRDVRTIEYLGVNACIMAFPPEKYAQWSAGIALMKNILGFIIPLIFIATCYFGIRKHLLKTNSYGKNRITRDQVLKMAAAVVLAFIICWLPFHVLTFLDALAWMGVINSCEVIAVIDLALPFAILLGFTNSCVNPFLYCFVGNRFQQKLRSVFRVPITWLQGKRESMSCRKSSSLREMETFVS
measurement-notes: Radioligand binding assay, displacement of 125I-[Sar1, Ile8]-Angiotensin II, hAT2R Cb23
condition-details: displacement of 125I-[Sar1, Ile8]-Angiotensin II, human AT2R fused to Cb23, HEK-293 cell membrane preparations; read-out: Binding affinity on hAT2R_Cb23 IC50
pIC50: −log10 of the molar value.
measure: pIC50

| given-smiles | pIC50 |
| --- | --- |
| CC(C)Cc1cnc(-c2nn[nH]n2)c(N2CCN(Cc3nc4ccccc4s3)CC2)c1 | 5.83 |

a = Cc1cccnc1CN1CCN(c2cc(CC(C)C)cc(F)c2-c2nn[nH]n2)C[C@@H]1C
b = Cc1ccc2nc(CN3CCN(c4cc(CC(C)C)ccc4-c4nn[nH]n4)CC3)cc(=O)n2c1
Query block: Compare reported pIC50 values for a and b . Which is lower? // respond with label for picked entry
Result block: b
